- measurement target: T1, hIL2Rg-Fc (SinoBiological cat#10555) (human, UniProt P31785 23-254, limits assumed)
- T1 construct: Bought Fc fusion (SinoBiological cat#10555); P31785 is printed for hCD132 in the background; also called human IL2Rg-Fc; not shown: Fc of the bought fusion protein
- T1 sequence (looked up): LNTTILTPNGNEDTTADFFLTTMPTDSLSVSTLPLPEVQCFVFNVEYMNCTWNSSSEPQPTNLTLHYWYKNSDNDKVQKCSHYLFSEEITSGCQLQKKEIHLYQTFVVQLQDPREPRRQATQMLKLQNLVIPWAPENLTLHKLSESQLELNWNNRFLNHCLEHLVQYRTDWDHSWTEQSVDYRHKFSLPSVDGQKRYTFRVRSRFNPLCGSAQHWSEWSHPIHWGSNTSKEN
- protocol summary: SPR (Biacore T200); ratio experimental/calculated Rmax

# binder, Surface Activity
measured = [
    ("DR392(DR229-DR236) (bispecific antibody, Anti-hIL10Ra/hIL2Rg dual VHH with ASH6 handle; also called A7) QVQLQESGGGLVQPGGSLRLSCTASGFSFSSYPMTWARQAPGKGLEWVSTIASDGGSTAYAASVEGRFTISRDNAKSTLYLQLNSLKTEDTAMYYCTKGYGDGTPAPGQGTQVTVSSGGGSQVQLQESGGGSVQAGGSLRLSCAASRFTYSSYCMGWFRQAPGKEREGVASIDSDGSTSYTDSVKGRFTISKDNAKNTLYLQMNSLKPEDTAMYYCALDLMSTVVPGFCGFLLSAGMDYWGKGTQVTVSSASHHHHHH", "4%"),
]
